Biological target: Human recombinant PKCα (Homo sapiens, UniProt P17252)
Assay: Protein Kinase Cα Assay
Settings: 10 μM 33P-ATP, 60 min room temperature
pIC50: −log10 of the molar value.
measure: pIC50

{"molecule": "CN1CCN(c2ccc([N+](=O)[O-])c(C3=C(c4c[nH]c5ccccc45)C(=O)NC3=O)c2)CC1", "pIC50": 8.59}
{"molecule": "Cc1cccc2c(C3=C(c4cc(N5CCN(C)CC5)ccc4[N+](=O)[O-])C(=O)NC3=O)c[nH]c12", "pIC50": 8.54}

---

Molecular target: Human recombinant PKCθ (Homo sapiens)
Sequence (Q04759 whole entry): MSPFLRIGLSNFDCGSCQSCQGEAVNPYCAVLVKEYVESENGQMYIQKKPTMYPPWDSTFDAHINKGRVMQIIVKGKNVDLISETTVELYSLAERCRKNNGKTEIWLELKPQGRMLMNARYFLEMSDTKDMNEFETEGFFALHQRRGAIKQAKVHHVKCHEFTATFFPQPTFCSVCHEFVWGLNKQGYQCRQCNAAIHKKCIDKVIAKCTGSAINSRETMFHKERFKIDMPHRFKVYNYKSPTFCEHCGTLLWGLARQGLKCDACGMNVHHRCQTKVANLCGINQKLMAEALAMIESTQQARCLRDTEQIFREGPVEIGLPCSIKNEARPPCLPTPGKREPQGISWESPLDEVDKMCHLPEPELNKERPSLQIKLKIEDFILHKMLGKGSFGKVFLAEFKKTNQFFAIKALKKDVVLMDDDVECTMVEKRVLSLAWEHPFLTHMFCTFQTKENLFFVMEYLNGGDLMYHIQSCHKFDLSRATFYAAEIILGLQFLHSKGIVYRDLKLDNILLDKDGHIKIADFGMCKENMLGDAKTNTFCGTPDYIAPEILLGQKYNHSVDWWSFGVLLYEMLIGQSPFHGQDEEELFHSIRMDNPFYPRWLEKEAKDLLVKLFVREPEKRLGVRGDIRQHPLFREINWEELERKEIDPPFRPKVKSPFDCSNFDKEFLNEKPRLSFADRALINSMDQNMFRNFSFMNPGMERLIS
Experiment: Protein Kinase C θ Assay
measure: IC50 (nM)

{"molecule": "Cc1cccc2c(C3=C(c4cc(N5CCN(C)CC5)ccc4[N+](=O)[O-])C(=O)NC3=O)c[nH]c12", "IC50 [nM]": 10.2}
{"molecule": "CN1CCN(c2ccc([N+](=O)[O-])c(C3=C(c4c[nH]c5ccccc45)C(=O)NC3=O)c2)CC1", "IC50 [nM]": 8.9}
